Relative Population Doubling (RPD) for assorted molecules
System: TK6 cells
Assay: Cytostasis analysis (Relative Population Doubling, Guava ViaCount)
Assay type: cell-based, human
Details: 12.5 µM, 26 h treatment, vs untreated control C (-) = 100%, mean ± SEM

{"Molecule": "COc1ccc(OC)c(CCN)c1", "Relative Population Doubling (RPD)": "81.1% ± 1.8"}
{"Molecule": "COc1cc(CCN)c(OC)cc1Br", "Relative Population Doubling (RPD)": "93.1% ± 2.1"}

Please look at the following molecule next.
Response field Relative Population Doubling (RPD) (TK6 cells) for item CNC(C)Cc1ccc2c(c1)OCO2 (stereo not drawn) [MDMA, 3,4-methylenedioxy-methamphetamine, reference compound] : 96.0% ± 0.8
